Cited source for all entries: PubChem BioAssay (NCI)

- ASSAY COMMENT: NCI Yeast Anticancer Drug Screen. Data for the bub3 strain (AID 167)
- CONDITION CONTEXT: S. cerevisiae bub3 mutant strain, at 50.0 µM
The panel holds about 79,000 compounds, 15% with a hit somewhere; the sample as a whole holds those more often. The source made the active and inactive calls. Rule as the data show it: active = growth inhibition above about 70%; inactive = the rest.
Labels: active, inactive

In [3]: df
Out[3]:
                                    molecule  assigned_class
 0      O=C1OC(c2cccc(Cl)c2)=N/C1=C\c1ccccc1        inactive
 1                     O=C([O-])C[n+]1ccccc1        inactive
 2                        Cc1cccc(C(=O)NN)c1        inactive
 3                               CCCCOCCOCCO        inactive
 4  Cn1c(=O)c2ncn(CC(O)COc3ccccc3)c2n(C)c1=O (stereo not given)        inactive
 5  N#CCCN(CCC#N)c1ccc(/C=C2\N=C(c3cc([N+](=O)[O-])ccc3Cl)N(NC(=O)CC(=O)Nc3ccccc3Cl)C2=O)cc1        inactive
 6  CC(C(=O)c1ccc(Cl)cc1)[n+]1cc(Br)cc(Br)c1 (stereo not given)        inactive
 7  CCCCCCCc1cc(OC(=O)c2c(C)cc(OC)cc2O)cc(O)c1C(=O)O        inactive
 8                      COc1cc(Br)c2ncccc2c1        inactive
 9          CCCc1cc(=O)oc2c(C=O)c(O)cc(O)c12        inactive
10                CC(=O)CC(=O)Nc1ccccc1C(C)C        inactive
11   Cn1cnc([N+](=O)[O-])c1Sc1nc2ccccc2[nH]1        inactive
12  CC(C)(C)n1c(=O)n(-c2ccccc2)n(C(C)(C)C)c1=O        inactive
13               Cc1cc2ccccc2n1CC(=O)N1CCCC1        inactive
14            COC(=O)c1ccccc1S(=O)(=O)NC(C)C        inactive
15  O=C(CSSCC(=O)Nc1ccc(Br)cc1)Nc1ccc(Br)cc1        inactive
16  S=c1nc(-c2ccnc(-c3nc(=S)[nH][nH]3)c2)[nH][nH]1        inactive
17          O=C(O)c1cc2ccccc2c2cc3ccccc3cc12        inactive
18       CCCCCCCCCCCCCCCC[N+](C)(C)Cc1ccccc1          active
19     S=C(SCc1nc(-c2ccc(Cl)cc2)no1)N1CCSCC1        inactive
20                   COc1ccc(Cl)[n+]([O-])n1        inactive
21  CC1(C)OC2(CC1C1(C)C=CC(=O)O1)CC1C(O)(CCC34CC13C(=O)OC4c1ccoc1)O2 (stereo not given)        inactive
22         CCCN(CCC)NC(=O)c1ccc(N=NN(C)C)cc1        inactive
23                OCc1ccc2ccc3ccc(CO)nc3c2n1        inactive
24     Cc1ccc(NC(=O)Nc2ccc(Cl)c(Cl)c2)c(C)c1        inactive
